assayNotes: acute toxicity (72 hour LD50) in mice
studyConditions: mouse, in vivo, IP, read-out: 72 hour LD50 (95% Confidence Limits)
Quick reference: LD50 at 72 h of the listed items.
Give the quantity in mg/kg, number only.

Below, 3 molecules whose answers are already recorded.
{"columns": ["molecule", "quantityUnit", "experimentalResult"],
 "data": [
  ["CC(=O)c1ccc2c(c1)N(CCCN1CCC(C(=O)c3ccc(F)cc3)CC1)c1ccccc1S2 [Example 6, Difumarate Sesquihydrate]", "mg/kg", 287],
  ["O=C(c1ccc(F)cc1)C1CCN(CCCN2c3ccccc3Sc3ccc(C(F)(F)F)cc32)CC1", "mg/kg", 317],
  ["O=C(c1ccc(F)cc1)C1CCN(CCCN2c3ccccc3Sc3ccccc32)CC1", "mg/kg", 330]
]}

Lab note: O=C(c1ccc(F)cc1)C1CCN(CCCN2c3ccccc3Sc3ccc(Cl)cc32)CC1 gave LD50 at 72 h of 248

FYI, the data here is from patent US4021552A.
